# system: Bruton's tyrosine kinase (Btk) kinase domain (Homo sapiens)
# Sequence (Q06187 387-569): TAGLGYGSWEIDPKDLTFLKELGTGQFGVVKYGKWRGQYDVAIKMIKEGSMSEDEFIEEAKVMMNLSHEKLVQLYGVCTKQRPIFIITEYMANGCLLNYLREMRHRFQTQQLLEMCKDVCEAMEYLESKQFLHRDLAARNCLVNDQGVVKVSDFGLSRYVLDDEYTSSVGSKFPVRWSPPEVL
recorded-metric: pKd
Conceptually, pKd converts a concentration in mol/L into minus its log10.

Task: Request the reported pKd associated with c1nc2c(Nc3ccc4c(c3)OCCO4)nc(Nc3ccc4c(c3)OCCO4)nc2[nH]1
Output: 6.60
